test: YB-1 transcript reduction by qRT-PCR – cell-based, fluorescence, primary screen (AID 434959); conditions: U2OS, qRT-PCR YB-1 vs CDIP delta delta Cp, 16 h; zero = DMSO, each unit about twofold;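 note: higher means less YB-1 transcript or more CDIP transcript relative to DMSO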
Hit rate of the full screen: of about 30,000 compounds, about 110 (0.37%) were called active.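 Rule for the calls: active = delta delta Cp rounded down to an integer at or above 3, about 3 SD of DMSO wells; inactive = the rest.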 For the sample, actives were picked, then their nearest neighbours and some compounds at random.
Select the correct class. Options are active, inactive and nothing else.

Would you mind telling me which call this test gave C[C@@H]1CCCCO[C@@H](CN(C)S(=O)(=O)c2cccs2)[C@@H](C)CN([C@H](C)CO)C(=O)c2cc(NC(=O)Nc3ccc(F)cc3)ccc2O1 ? inactive

====

test: YB-1 transcript reduction by qRT-PCR – cell-based, fluorescence, primary screen (AID 434959); details: U2OS, qRT-PCR YB-1 vs CDIP delta delta Cp, 16 h; active compounds read high; zero = DMSO, each unit about twofold;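 note: higher means less YB-1 transcript or more CDIP transcript relative to DMSO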
The whole screen tested about 30,000 compounds, of which about 110 (0.37%) were called active. Many of the other results were omitted from the sample, so actives are more common in it than they were.
A collection of compounds and their measured delta Cp (YB-1 minus CDIP)
No unit in the answer, only the number.

Check out these entries, answers already filled in.
Form field: reported delta Cp (YB-1 minus CDIP) of C[C@@H]1CN([C@H](C)CO)C(=O)CCCn2nncc2CO[C@@H]1CN(C)C(=O)OCc1ccccc1 0.0587

I'd like to know its delta Cp (YB-1 minus CDIP). The compound in question is COc1ccc(S(=O)(=O)Nc2ccc3c(c2)C(=O)N([C@H](C)CO)C[C@@H](C)[C@@H](CN(C)CC2CCCCC2)O3)cc1 0.268

What delta Cp (YB-1 minus CDIP) value was documented for this compound, CCCN(C)C[C@@H]1OCCCC[C@@H](C)Oc2ccc(NC(=O)CCCN(C)C)cc2C(=O)N([C@H](C)CO)C[C@@H]1C ? -0.0474

Bench note: what delta Cp (YB-1 minus CDIP) did COc1cccc(-c2cnc3c(c2)C(=O)N([C@H](C)CO)C[C@H](C)[C@H](CN(C)S(=O)(=O)c2cccc(F)c2)O3)c1 show? -0.156

Fill in the blank: the reported delta Cp (YB-1 minus CDIP) of CCOC(=O)c1cc(=O)c2ccc(OCc3ccccc3)cc2o1 is ____. 0.522

---
Report delta Cp (YB-1 minus CDIP) for COc1cccc(NC(=O)N(C)C[C@@H]2OCc3cn(nn3)CCCC(=O)N([C@@H](C)CO)C[C@H]2C)c1 please. 0.0991

Which delta Cp (YB-1 minus CDIP) reading was recorded for the compound C[C@@H]1CN([C@@H](C)CO)C(=O)Cc2cc(NC(=O)Cc3ccccc3)ccc2O[C@@H]1CN(C)Cc1ccc(Oc2ccccc2)cc1 ? -0.162

For C[C@@H]1CN([C@H](C)CO)C(=O)c2cccc(NC(=O)c3ccncc3)c2O[C@@H]1CN(C)C , what is its reported delta Cp (YB-1 minus CDIP)? -0.219

====

experiment: YB-1 transcript reduction by qRT-PCR – cell-based, fluorescence, primary screen (AID 434959); details: U2OS, qRT-PCR YB-1 vs CDIP delta delta Cp, 16 h; zero = DMSO, each unit about twofold;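 note: higher means less YB-1 transcript or more CDIP transcript relative to DMSO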
Among all 30,000 compounds or so, about 110 (0.37%) were called active.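 Rule for the calls: active = delta delta Cp rounded down to an integer at or above 3, about 3 SD of DMSO wells; inactive = the rest.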 The entries come from a sample that favours actives as a whole.
Answer with one of the outcomes active, inactive

Study these solved cases before continuing.
Status in this test for CC(C)CSc1nnc(CSCc2nc(-c3ccc(Cl)cc3)cs2)n1C ? inactive

Please state the recorded outcome for this molecule: COc1ccc2c(c1)C(=O)CC(c1ccccc1)O2 (stereo unspecified) inactive

Name the outcome recorded for C[C@@H]1CN([C@H](C)CO)C(=O)c2cc(NC(=O)CCCN(C)C)ccc2O[C@H]1CN(C)S(=O)(=O)c1ccc(Cl)cc1 in the assay. inactive

Continuing:
What did the test return for O=C(CCCCC(=O)N/N=C/c1ccc(C(F)(F)F)cc1)NO ? inactive

Which result was noted for this molecule in the test: COc1ccc(CN(C)C[C@H]2Oc3c(NC(=O)C4CC4)cccc3C(=O)N([C@@H](C)CO)C[C@H]2C)cc1 inactive

Any idea what this test logged for NC(=S)c1cnn2c(C(F)(F)F)cc(C(F)(F)F)nc12 ? active

Record request — test call for COc1ccc(C#Cc2ccc3c(c2)[C@]2(C(=O)N3)[C@H](C(=O)N3CCc4cc(OC)c(OC)cc4C3)[C@H]3C(=O)O[C@H](c4ccccc4)[C@H](c4ccccc4)N3[C@@H]2c2ccc(O)cc2)cc1 inactive

Record lookup: outcome of this test for C[C@H]1CN([C@@H](C)CO)C(=O)c2cc(NS(=O)(=O)c3cccs3)ccc2O[C@@H]1CN(C)C(=O)Nc1cccc2ccccc12 ? inactive

Could you please tell me the result logged for COc1cc([C@H](Cc2ccccc2)NC(C)=O)oc(=O)c1 in this assay? active

Hi team, can someone confirm the assay call for Cc1ccc(S(=O)(=O)Nc2cccc3c2O[C@@H](CN(C)S(=O)(=O)c2c(C)noc2C)[C@@H](C)CN([C@H](C)CO)C3=O)cc1 ? inactive

Recorded test call requested for C[C@@H]1CN([C@@H](C)CO)C(=O)CCCn2nncc2CO[C@@H]1CN(C)Cc1ccccc1 inactive

====

test: YB-1 transcript reduction by qRT-PCR – cell-based, fluorescence, primary screen (AID 434959); conditions: U2OS, qRT-PCR YB-1 vs CDIP delta delta Cp, 16 h; active compounds read high; zero = DMSO, each unit about twofold;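 note: higher means less YB-1 transcript or more CDIP transcript relative to DMSO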
The campaign covered roughly 30,000 compounds. About 110 (0.37%) were called active. The entries come from a sample that favours actives as a whole.
Reported delta Cp (YB-1 minus CDIP) values for a set of molecules

Reference set, count: 5
Given the molecule O=C(O)CCCCCC(=O)N/N=C/c1ccncc1Br , what is its reported delta Cp (YB-1 minus CDIP)? -0.0121 (inactive)

Recorded delta Cp (YB-1 minus CDIP) for CC1OC(OC2C(OC3C(O[C@H]4CC[C@@]5(C)C(CC[C@]6(C)C5CC=C5[C@@H]7CC(C)(C)C[C@@H](O)[C@]7(C)CC[C@]56C)C4(C)C)OC(C(=O)O)C(O)C3O)OC(CO)C(O)C2O)C(O)C(O)C1O (stereo not given in full) , please? 0.299 (inactive)

Recorded delta Cp (YB-1 minus CDIP) for COc1ccc(NC(=O)N(C)C[C@@H]2Oc3ccc(NS(=O)(=O)c4ccc(OC)cc4)cc3CC(=O)N([C@H](C)CO)C[C@H]2C)cc1 , please? -0.353 (inactive)

State the recorded delta Cp (YB-1 minus CDIP) for this entry: COc1cc(OC)c(/C=N/NC(=O)CCCCCCC(=O)Nc2ccccc2O)c(OC)c1 -0.14 (inactive)

# input molecule: C[C@H]1CN([C@@H](C)CO)C(=O)Cc2cc(NS(=O)(=O)c3cccs3)ccc2O[C@H]1CN(C)Cc1ccncc1 ; wanted: its delta Cp (YB-1 minus CDIP) 0.635 (inactive)

***
Name the reported delta Cp (YB-1 minus CDIP) value associated with the molecule Cc1noc(C)c1S(=O)(=O)Nc1ccc2c(c1)C(=O)N([C@@H](C)CO)C[C@H](C)[C@H](CN(C)C(=O)Nc1ccc(C(F)(F)F)cc1)O2 -0.372 (inactive)

Look at this molecule and give its reported delta Cp (YB-1 minus CDIP). Cc1ccc(S(=O)(=O)Nc2ccc3c(c2)C(=O)N([C@@H](C)CO)C[C@@H](C)[C@H](CN(C)CC2CC2)O3)cc1 -0.0524 (inactive)

Fill in: delta Cp (YB-1 minus CDIP) of O=C(O)CCCCCCC(=O)N/N=C/c1cccs1 is ___ -0.0775 (inactive)

# delta Cp (YB-1 minus CDIP) lookup, item C/C=C(/C)C(=O)O[C@H]1CC(C)(C)C[C@H]2C3=CCC4[C@@]5(C)CC[C@H](O[C@@H]6O[C@H](C(=O)O)[C@@H](O[C@@H]7O[C@H](CO)[C@H](O)[C@H](O)[C@H]7O[C@@H]7O[C@H](CO)[C@@H](O)[C@H](O)[C@H]7O)[C@H](O)[C@H]6O[C@@H]6O[C@@H](C)[C@H](O)[C@@H](O)[C@H]6O)C(C)(C)C5CC[C@@]4(C)[C@]3(C)[C@@H](O)[C@@H](O)[C@@]12CO (stereo not given in full) 10.3 (active)

Given the entry C[C@@H]1CN([C@@H](C)CO)C(=O)Cc2cc(NC(=O)Nc3cccc4ccccc34)ccc2O[C@@H]1CN(C)CC1CCCCC1 , report its measured delta Cp (YB-1 minus CDIP). 0.088 (inactive)

====

assay: YB-1 transcript reduction by qRT-PCR – cell-based, fluorescence, primary screen (AID 434959); settings: U2OS, qRT-PCR YB-1 vs CDIP delta delta Cp, 16 h; active compounds read high; zero = DMSO, each unit about twofold;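 note: higher means less YB-1 transcript or more CDIP transcript relative to DMSO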
In all, about 30,000 compounds went through this assay and about 110 (0.37%) were called active. Only a selection was taken, and actives are over-represented in it overall.
Please use true (1) whenever delta Cp (YB-1 minus CDIP) is not below -0.2, and false (0) whenever it is.

// below: answered compounds
Is delta Cp (YB-1 minus CDIP) at least -0.2? Consider C[C@H]1CN([C@@H](C)CO)C(=O)CCCn2cc(nn2)CO[C@H]1CN(C)C(=O)Nc1ccc(F)cc1 false (0)

# bool: delta Cp (YB-1 minus CDIP) of C[C@@H]1CN([C@H](C)CO)C(=O)CCCn2cc(nn2)CO[C@H]1CN(C)S(=O)(=O)c1ccc(Oc2ccccc2)nc1 >= -0.2 true (1)

More entries:
Does delta Cp (YB-1 minus CDIP) meet or surpass -0.2 for C[C@H]1CN([C@@H](C)CO)C(=O)c2cc(NC(=O)Cc3cn(C)c4ccccc34)ccc2O[C@H]1CN(C)CC1CCCCC1 ? false (0)

Is the recorded value of delta Cp (YB-1 minus CDIP) equal to or greater than -0.2 for this compound? C[C@@H]1CN([C@@H](C)CO)C(=O)CCCn2cc(nn2)CO[C@H]1CN(C)Cc1cccc2c1OCCCO2 true (1)

Decide: is the reported value of delta Cp (YB-1 minus CDIP) for COc1ccc(CN(C)C[C@@H]2Oc3ccc(NS(=O)(=O)c4cn(C)cn4)cc3C(=O)N([C@@H](C)CO)C[C@@H]2C)cc1 equal to or greater than -0.2? false (0)

Quick check: does Cc1cc(C(=O)Nc2cccc3c2O[C@@H](CN(C)C(=O)Nc2ccc4c(c2)OCO4)[C@H](C)CN([C@@H](C)CO)C3=O)n(C)n1 have delta Cp (YB-1 minus CDIP) greater than or equal to -0.2? true (1)
